Each recorded value in this set is attributed to ChEMBL document CHEMBL1140712.

Please provide measured Selectivity ratio for the entries that follow.
Experimental Target: Serotonin 2 receptors; 5-HT2a & 5-HT2c (Homo sapiens) (UniProt P28223+P28335)
Sequence (P28223 whole entry, looked up): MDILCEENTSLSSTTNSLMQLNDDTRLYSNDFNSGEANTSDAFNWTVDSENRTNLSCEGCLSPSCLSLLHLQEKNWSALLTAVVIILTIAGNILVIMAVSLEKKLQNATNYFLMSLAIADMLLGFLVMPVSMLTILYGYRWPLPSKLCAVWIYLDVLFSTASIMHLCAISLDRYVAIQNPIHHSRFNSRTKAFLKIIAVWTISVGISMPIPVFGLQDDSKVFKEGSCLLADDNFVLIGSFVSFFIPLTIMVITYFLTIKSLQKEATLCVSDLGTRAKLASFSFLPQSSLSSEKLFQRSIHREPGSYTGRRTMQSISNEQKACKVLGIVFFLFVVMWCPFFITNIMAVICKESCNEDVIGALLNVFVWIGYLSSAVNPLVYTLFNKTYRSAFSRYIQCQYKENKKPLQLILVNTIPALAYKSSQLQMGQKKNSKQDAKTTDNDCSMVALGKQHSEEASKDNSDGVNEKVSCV
Sequence (P28335 whole entry, looked up): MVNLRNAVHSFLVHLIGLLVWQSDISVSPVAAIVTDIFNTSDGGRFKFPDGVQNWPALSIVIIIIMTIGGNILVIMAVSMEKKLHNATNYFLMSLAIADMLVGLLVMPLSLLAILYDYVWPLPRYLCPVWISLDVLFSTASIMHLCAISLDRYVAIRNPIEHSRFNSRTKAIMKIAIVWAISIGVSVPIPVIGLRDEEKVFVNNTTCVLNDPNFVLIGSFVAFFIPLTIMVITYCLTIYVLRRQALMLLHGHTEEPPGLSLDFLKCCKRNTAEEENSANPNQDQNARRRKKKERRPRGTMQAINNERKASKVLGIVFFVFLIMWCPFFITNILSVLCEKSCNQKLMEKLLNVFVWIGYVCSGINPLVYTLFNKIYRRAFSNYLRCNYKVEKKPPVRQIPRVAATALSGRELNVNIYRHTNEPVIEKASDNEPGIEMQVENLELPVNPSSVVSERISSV
Protocol Summary: Selectivity ratio of pEC50 for human 5HT2A to pEC50 for human 5HT2C
// print number alone

Query :: Data request, read-out Selectivity ratio, for "Clc1ccc2c(c1)CCNCC2"
Result :: 0.9

Query :: Data request, read-out Selectivity ratio, for "CC[C@H]1CNCCc2ccc(Cl)cc21"
Result :: 0.8

Query :: Data request, read-out Selectivity ratio, for CC1CNCCc2ccc(Cl)c(Cl)c21 (racemic)
Result :: 1.4

Query :: Data request, read-out Selectivity ratio, for "C[C@@H]1CNCCc2ccc(Cl)c(Cl)c21"
Result :: 1.6

Query :: Data request, read-out Selectivity ratio, for COc1cc2c(cc1Cl)C(C)CNCC2 (racemic)
Result :: 0.9
